# System: Lolium perenne (LOLPE)
# Assay Explanation: Glasshouse assay for herbicidal activity (pre- and post-emergence), percentage phytotoxicity
# Type: in vivo
# Test Settings: Lolium perenne, post-emergence, 360 h, POST-emergence, rate 250 g/ha, visual score 15 DAA (100%=total damage, 0%=no damage); read-out: Post-emergence herbicidal activity (percentage phytotoxicity) LOLPE POST
# Description: Test—Glasshouse Assay for Herbicidal Activity Seeds of a variety of monocotyledonous and dicotyledonous test plants are sown in standard soil in pots. The plants are cultivated for one day (for pre-emergence (PRE)) or for about 12 days (for post-emergence (POST)) under controlled conditions in a glasshouse (warm climate species at 24/18° C., cool climate species at 20/16° C., both at day/night; 16 hours light; 65% humidity). […]

{"Molecule": "C#CCN(C)C(=O)CC1CC(=O)C(c2c(C)cc(/C=C/C)cc2CC)C1=O (stereo not shown) [Compound B195]", "pest or weed control at 250 g/ha, %": 100}
{"Molecule": "Cc1cc(-c2ncc(F)cc2F)cc(C)c1C1C(=O)CC(CC(=O)NC(C)C)C1=O (stereo not shown) [Compound B203]", "pest or weed control at 250 g/ha, %": 100}
{"Molecule": "CCc1cc(OCC(F)(F)F)cc(C)c1C1C(=O)CC(CC(=O)NCc2cccc(F)c2)C1=O (stereo not shown) [Compound B214]", "pest or weed control at 250 g/ha, %": 100}
{"Molecule": "C/C=C/c1cc(C)c(C2C(=O)CC(CC(=O)N3CCOCC3)C2=O)c(C)c1 (stereo not shown) [Compound B172]", "pest or weed control at 250 g/ha, %": 90}
{"Molecule": "C=CC(C)NC(=O)CC1CC(=O)C(c2c(C)cc(-c3ncc(F)cc3F)cc2C)C1=O (stereo not shown) [Compound B330]", "pest or weed control at 250 g/ha, %": 100}
{"Molecule": "C/C=C/c1cc(C)c(C2C(=O)CC(CC(=O)N(C)C(C)(C)C)C2=O)c(C)c1 (stereo not shown) [Compound B249]", "pest or weed control at 250 g/ha, %": 60}
{"Molecule": "CCc1cc(C)cc(C)c1C1C(=O)CC(CC(=O)NCc2ccc(OC)cc2)C1=O (stereo not shown) [Compound B253]", "pest or weed control at 250 g/ha, %": 100}
{"Molecule": "CCc1cc(C)cc(C)c1C1C(=O)CC(CC(=O)N(C)CC)C1=O (stereo not shown) [Compound B258]", "pest or weed control at 250 g/ha, %": 100}
{"Molecule": "CC#Cc1cc(C)c(C2C(=O)CC(CC(=O)NCc3ccccc3)C2=O)c(C)c1 (stereo not shown) [Compound B185]", "pest or weed control at 250 g/ha, %": 100}
{"Molecule": "CNC(=O)CC1CC(=O)C(c2c(C)cc(-c3ncc(F)cc3F)cc2C)C1=O (stereo not shown) [Compound B269]", "pest or weed control at 250 g/ha, %": 100}
{"Molecule": "CCNC(=O)CC1CC(=O)C(c2c(C)cc(-c3ncc(Cl)cn3)cc2C)C1=O (stereo not shown) [Compound B305]", "pest or weed control at 250 g/ha, %": 100}
{"Molecule": "CCc1cc(OCC(F)(F)F)cc(C)c1C1C(=O)CC(CC(=O)N(C)C(C)(C)C)C1=O (stereo not shown) [Compound B221]", "pest or weed control at 250 g/ha, %": 100}
{"Molecule": "Cc1cc(-c2ncc(Br)cn2)cc(C)c1C1C(=O)CC(CC(=O)NC(C)(C)C)C1=O (stereo not shown) [Compound B268]", "pest or weed control at 250 g/ha, %": 100}
{"Molecule": "CCc1cc(-n2cc(Cl)cn2)cc(C)c1C1C(=O)CC(CC(=O)NCc2cccc(F)c2)C1=O (stereo not shown) [Compound B232]", "pest or weed control at 250 g/ha, %": 100}
{"Molecule": "Cc1cc(-c2ncc(Br)cn2)cc(C)c1C1C(=O)CC(CC(=O)N2CCOCC2)C1=O (stereo not shown) [Compound B285]", "pest or weed control at 250 g/ha, %": 100}
{"Molecule": "C#CCN(C)C(=O)CC1CC(=O)C(c2c(C)cc(-n3cc(Cl)cn3)cc2C)C1=O (stereo not shown) [Compound B230]", "pest or weed control at 250 g/ha, %": 90}
